Cited source: patent US20100273650A1

tested on: Phytophthora infestans; assay: microbe, parasite or virus in culture; type: cell-based; details: 168 h, read-out: Observed efficacy
Observable: inhibition of growth at 0.25 ppm (%)
The reply should be a number in %, with the unit left off.

The examples below pair each entry with its known result.
Molecule: CCCCCCCCc1c(CC)nc2ncnn2c1N
Unit spec: %
inhibition of growth at 0.25 ppm: 29
//
Molecule: N#Cc1c(Cl)c(Cl)c(Cl)c(C#N)c1Cl [Chlorothalonil, 2,4,5,6-tetrachloroisophthalonitrile]
Unit spec: %
inhibition of growth at 0.25 ppm: 10
//
Molecule: CNC(=O)/C(=N/OC)c1ccccc1COc1cc(C)ccc1C [Dimoxystrobin]
Unit spec: %
inhibition of growth at 0.25 ppm: 42

Please examine the following record next.
Inquiry: Look at this molecule and give its reported inhibition of growth at 0.25 ppm. OC(c1cccnc1)c1c(-c2ccc(Cl)cc2)csc1-c1ccc(Cl)cc1 (stereo not shown) [I.8]
Reply text: 1
